test: NCI Yeast Anticancer Drug Screen. Data for the cln2 rad14 strain (AID 165);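 also: 0% = growth equal to vehicle treated cultures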; conditions: S. cerevisiae cln2 rad14 strain, at 50.0 µM, active compounds read high
This is part of a sample that, as a whole, favours compounds with a hit. Of some 79,000 tested, about 15% had one in any assay.

- compound: "O=C(O)c1ccc2cc(Cl)c3ccccc3c2c1"
  unitInfo: "%"
  growth inhibition: 92.8
- compound: "CCCCN(CCC#N)c1ccc(/C=C/c2ccnc3ccccc23)cc1"
  unitInfo: "%"
  growth inhibition: -9.8
- compound: "O=C1c2ccccc2C(=O)c2c(O)c(NCCNCCO)cc(O)c21"
  unitInfo: "%"
  growth inhibition: 65.5
- compound: "Cc1ccc(C)c(C(=N)c2ccccc2Cc2ccccc2)c1"
  unitInfo: "%"
  growth inhibition: 93.4
- compound: "Cc1cccc(/C=N/NC(=S)NC2CCCCC2)n1"
  unitInfo: "%"
  growth inhibition: 40.6
- compound: "O=C1C2=C(c3ccccc31)C(c1ccccc1)N1C(=O)CSC1=N2 (configuration not stated)"
  unitInfo: "%"
  growth inhibition: 38.7
- compound: "CC(C)OC(=O)NNc1c(Cl)cc(Cl)cc1Cl"
  unitInfo: "%"
  growth inhibition: 12.3
- compound: "Nc1ccc(N=Nc2ccc(-c3ccc(O)cc3)cc2)c2ccc(S(=O)(=O)O)cc12"
  unitInfo: "%"
  growth inhibition: 47.1
- compound: "O=C(Nn1c(-c2ccccc2)nc2ccccc2c1=O)c1ccc(CS)cc1"
  unitInfo: "%"
  growth inhibition: 27.5
- compound: "CCCCCCCCNCCCCCCCC"
  unitInfo: "%"
  growth inhibition: 99.1
- compound: "O=C(O)c1cc2c(cc1S(=O)(=O)O)C1C(C3C2C2(Cl)C(Cl)=C(Cl)C3(Cl)C2(Cl)Cl)C2(Cl)C(Cl)=C(Cl)C1(Cl)C2(Cl)Cl (configuration not stated)"
  unitInfo: "%"
  growth inhibition: 93.7
- compound: "CCN(CC)CC(=O)c1ccc2cc(Cl)c3ccccc3c2c1"
  unitInfo: "%"
  growth inhibition: 99.2
- compound: "CCN1CCC(O)(c2ccc(Oc3ccc(Cl)cc3)cc2)C(C(=O)c2ccc(Oc3ccc(Cl)cc3)cc2)C1 (configuration not stated)"
  unitInfo: "%"
  growth inhibition: 87.5
- compound: "CCN(CC)C(=S)N/N=C(\\C)c1ccccc1O"
  unitInfo: "%"
  growth inhibition: 89.3
- compound: "CC1=CC(=O)C=CC1=Nc1cc(Cl)c(O)c(Cl)c1"
  unitInfo: "%"
  growth inhibition: 77.2
- compound: "NC(N)=NC(N)=Nc1ccccc1 (tested in a mixture with another compound)"
  unitInfo: "%"
  growth inhibition: 23.6
- compound: "O=S1(=O)CCC2=CC(C(F)(F)F)=CC(C(F)(F)F)=CN21"
  unitInfo: "%"
  growth inhibition: 83.9
- compound: "CCN(CC)CCNc1ccc(C)c2sc3ccc(O)cc3c(=O)c12"
  unitInfo: "%"
  growth inhibition: 90.9
- compound: "CC(C)S(=O)(=O)/C=C\\S(=O)(=O)C(C)C"
  unitInfo: "%"
  growth inhibition: -17.3
- compound: "COc1cccc(/C=C2\\S/C(=N/Nc3nc(-c4ccc([N+](=O)[O-])cc4)cs3)NC2=O)c1O"
  unitInfo: "%"
  growth inhibition: 76.7
- compound: "CCCCOc1ccc2nc(C)cc(N=[N+]=[N-])c2c1"
  unitInfo: "%"
  growth inhibition: 40.8
- compound: "COC1/C=C\\C=C(/C)C(=O)NC2=CC(=O)C(=O)C(=C2O)CC(C)CC(OC)C(O)C(C)/C=C(\\C)C1OC(N)=O (configuration not stated)"
  unitInfo: "%"
  growth inhibition: 77.8
